tested on: 521955-158-R6-J3-PDC complex spheroid growth, % test/control; experiment: Anticancer human tumor 521955-158-R6-J3-PDC patient-derived pancreatic carcinoma cell line growth inhibition [Asc]; conditions: second compound 0.316 µM; first compound 1 µM; stronger effect = lower value
measure.name: viability, T/C

Which viability, T/C value belongs to C=CC(=O)N1CCN(c2nc(=O)n(-c3c(C)ccnc3C(C)C)c3nc(-c4c(O)cccc4F)c(F)cc23)C(C)C1 (stereo not drawn) + CNC(C)C(=O)NC1CN(S(=O)(=O)c2cccc(S(=O)(=O)N3CCC4CCC(C(=O)NC(c5ccccc5)c5ccccc5)N4C(=O)C(NC(=O)C(C)NC)C3)c2)CCC2CCC(C(=O)NC(c3ccccc3)c3ccccc3)N2C1=O ? 107%

Which viability, T/C value belongs to O=C(c1ccc(F)c(F)c1Nc1ccc(I)cc1F)N1CC(O)([C@@H]2CCCCN2)C1 + Cc1c(S(C)(=O)=O)c(-c2cc(F)cc(N3CCN(c4ccc(NS(=O)(=O)c5ccc(NC(CCN6CCC(C(=O)OCCCP(=O)(O)O)CC6)CSc6ccccc6)c(S(=O)(=O)C(F)(F)F)c5)cc4)CC3)c2)c(-c2ccc(Cl)cc2)n1C(C)C ? 5.24%

Which viability, T/C value belongs to C#Cc1c(F)ccc2cc(O)cc(-c3ncc4c(N5CC6CCC(C5)N6)nc(OCC56CCCN5CC(F)C6)nc4c3F)c12 (stereo not drawn) + CNC(C)C(=O)NC1CN(S(=O)(=O)c2cccc(S(=O)(=O)N3CCC4CCC(C(=O)NC(c5ccccc5)c5ccccc5)N4C(=O)C(NC(=O)C(C)NC)C3)c2)CCC2CCC(C(=O)NC(c3ccccc3)c3ccccc3)N2C1=O ? 29.7%

====

So I've got a bunch of molecules here, and I need their viability, T/C values.
Tested on: 521955-158-R6-J3-PDC complex spheroid growth, % test/control
Test: Anticancer human tumor 521955-158-R6-J3-PDC cell line growth inhibition [Asc];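 note: spheroids exposed to compounds for 7 days; 100% = DMSO vehicle control wells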
Settings: second compound 0.0316 µM; first compound 0.1 µM; stronger effect = lower value
Source text: Multicellular complex tumor spheroid response to apoptosis pathway targeting inhibitors Alrizomadlin, Pelcitoclax, and Dasminapant in combination with a variety of drugs and investigational agents in selected tumor cell lines […] Compounds. […] If the clinical Cmax for an agent had not been determined, the highest concentration tested was 10 microM. […]

Which viability, T/C value belongs to O=C(c1ccc(F)c(F)c1Nc1ccc(I)cc1F)N1CC(O)([C@@H]2CCCCN2)C1 + CNC(C)C(=O)NC1CN(S(=O)(=O)c2cccc(S(=O)(=O)N3CCC4CCC(C(=O)NC(c5ccccc5)c5ccccc5)N4C(=O)C(NC(=O)C(C)NC)C3)c2)CCC2CCC(C(=O)NC(c3ccccc3)c3ccccc3)N2C1=O ? 72%

Which viability, T/C value belongs to CCN1CCN(Cc2ccc(Nc3ncc(F)c(-c4cc(F)c5nc(C)n(C(C)C)c5c4)n3)nc2)CC1 + Cc1c(S(C)(=O)=O)c(-c2cc(F)cc(N3CCN(c4ccc(NS(=O)(=O)c5ccc(NC(CCN6CCC(C(=O)OCCCP(=O)(O)O)CC6)CSc6ccccc6)c(S(=O)(=O)C(F)(F)F)c5)cc4)CC3)c2)c(-c2ccc(Cl)cc2)n1C(C)C ? 71.9%

Which viability, T/C value belongs to C#Cc1c(F)ccc2cc(O)cc(-c3ncc4c(N5CC6CCC(C5)N6)nc(OCC56CCCN5CC(F)C6)nc4c3F)c12 (centres undefined) + CNC(C)C(=O)NC1CN(S(=O)(=O)c2cccc(S(=O)(=O)N3CCC4CCC(C(=O)NC(c5ccccc5)c5ccccc5)N4C(=O)C(NC(=O)C(C)NC)C3)c2)CCC2CCC(C(=O)NC(c3ccccc3)c3ccccc3)N2C1=O ? 42.8%

Which viability, T/C value belongs to NC1CCC(NC2CC2c2ccccc2)CC1 (centres undefined) + CNC(C)C(=O)NC1CN(S(=O)(=O)c2cccc(S(=O)(=O)N3CCC4CCC(C(=O)NC(c5ccccc5)c5ccccc5)N4C(=O)C(NC(=O)C(C)NC)C3)c2)CCC2CCC(C(=O)NC(c3ccccc3)c3ccccc3)N2C1=O ? 88.8%

====

system: 521955-158-R6-J3-PDC complex spheroid growth, % test/control; assay: Anticancer human tumor 521955-158-R6-J3-PDC cell line growth inhibition [Asc]; settings: second compound 10 µM; first compound 0.1 µM; stronger effect = lower value;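 note: spheroids exposed to compounds for 7 days; 100% = DMSO vehicle control wells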
measure.name: viability, T/C (%)
Entry rule: numbers only, all in %.

Which viability, T/C value belongs to O=C(c1cc(Cc2n[nH]c(=O)c3ccccc23)ccc1F)N1CCN(C(=O)C2CC2)CC1 + Cc1c(S(C)(=O)=O)c(-c2cc(F)cc(N3CCN(c4ccc(NS(=O)(=O)c5ccc(NC(CCN6CCC(C(=O)OCCCP(=O)(O)O)CC6)CSc6ccccc6)c(S(=O)(=O)C(F)(F)F)c5)cc4)CC3)c2)c(-c2ccc(Cl)cc2)n1C(C)C ? 15.4

Which viability, T/C value belongs to CCN1CCN(Cc2ccc(Nc3ncc(F)c(-c4cc(F)c5nc(C)n(C(C)C)c5c4)n3)nc2)CC1 + Cc1c(S(C)(=O)=O)c(-c2cc(F)cc(N3CCN(c4ccc(NS(=O)(=O)c5ccc(NC(CCN6CCC(C(=O)OCCCP(=O)(O)O)CC6)CSc6ccccc6)c(S(=O)(=O)C(F)(F)F)c5)cc4)CC3)c2)c(-c2ccc(Cl)cc2)n1C(C)C ? 15.2

Which viability, T/C value belongs to C=C(F)C(=O)N1CCN(c2nc(OCC3CCCN3C)nc3c2CCN(c2cccc4cccc(Cl)c24)C3)CC1CC#N (stereo not given) + Cc1c(S(C)(=O)=O)c(-c2cc(F)cc(N3CCN(c4ccc(NS(=O)(=O)c5ccc(NC(CCN6CCC(C(=O)OCCCP(=O)(O)O)CC6)CSc6ccccc6)c(S(=O)(=O)C(F)(F)F)c5)cc4)CC3)c2)c(-c2ccc(Cl)cc2)n1C(C)C ? 18.4

Which viability, T/C value belongs to C#Cc1c(F)ccc2cc(O)cc(-c3ncc4c(N5CC6CCC(C5)N6)nc(OCC56CCCN5CC(F)C6)nc4c3F)c12 (stereo not given) + Cc1c(S(C)(=O)=O)c(-c2cc(F)cc(N3CCN(c4ccc(NS(=O)(=O)c5ccc(NC(CCN6CCC(C(=O)OCCCP(=O)(O)O)CC6)CSc6ccccc6)c(S(=O)(=O)C(F)(F)F)c5)cc4)CC3)c2)c(-c2ccc(Cl)cc2)n1C(C)C ? 6.93

Which viability, T/C value belongs to Cn1ncnc1[C@H]1c2n[nH]c(=O)c3cc(F)cc(c23)N[C@@H]1c1ccc(F)cc1 + Cc1c(S(C)(=O)=O)c(-c2cc(F)cc(N3CCN(c4ccc(NS(=O)(=O)c5ccc(NC(CCN6CCC(C(=O)OCCCP(=O)(O)O)CC6)CSc6ccccc6)c(S(=O)(=O)C(F)(F)F)c5)cc4)CC3)c2)c(-c2ccc(Cl)cc2)n1C(C)C ? 11

Which viability, T/C value belongs to O=C(c1ccc(F)c(F)c1Nc1ccc(I)cc1F)N1CC(O)([C@@H]2CCCCN2)C1 + Cc1c(S(C)(=O)=O)c(-c2cc(F)cc(N3CCN(c4ccc(NS(=O)(=O)c5ccc(NC(CCN6CCC(C(=O)OCCCP(=O)(O)O)CC6)CSc6ccccc6)c(S(=O)(=O)C(F)(F)F)c5)cc4)CC3)c2)c(-c2ccc(Cl)cc2)n1C(C)C ? 3.48

Which viability, T/C value belongs to C=CC(=O)N1CCN(c2nc(=O)n(-c3c(C)ccnc3C(C)C)c3nc(-c4c(O)cccc4F)c(F)cc23)C(C)C1 (stereo not given) + Cc1c(S(C)(=O)=O)c(-c2cc(F)cc(N3CCN(c4ccc(NS(=O)(=O)c5ccc(NC(CCN6CCC(C(=O)OCCCP(=O)(O)O)CC6)CSc6ccccc6)c(S(=O)(=O)C(F)(F)F)c5)cc4)CC3)c2)c(-c2ccc(Cl)cc2)n1C(C)C ? 9.59

Which viability, T/C value belongs to NC1CCC(NC2CC2c2ccccc2)CC1 (stereo not given) + Cc1c(S(C)(=O)=O)c(-c2cc(F)cc(N3CCN(c4ccc(NS(=O)(=O)c5ccc(NC(CCN6CCC(C(=O)OCCCP(=O)(O)O)CC6)CSc6ccccc6)c(S(=O)(=O)C(F)(F)F)c5)cc4)CC3)c2)c(-c2ccc(Cl)cc2)n1C(C)C ? 11.5

Which viability, T/C value belongs to COc1c(OCCCN2CCOCC2)ccc2c3n(c(=NC(=O)c4cnc(N)nc4)nc12)CCN3 + Cc1c(S(C)(=O)=O)c(-c2cc(F)cc(N3CCN(c4ccc(NS(=O)(=O)c5ccc(NC(CCN6CCC(C(=O)OCCCP(=O)(O)O)CC6)CSc6ccccc6)c(S(=O)(=O)C(F)(F)F)c5)cc4)CC3)c2)c(-c2ccc(Cl)cc2)n1C(C)C ? 7.73

Which viability, T/C value belongs to CNC(C)C(=O)NC1CN(S(=O)(=O)c2cccc(S(=O)(=O)N3CCC4CCC(C(=O)NC(c5ccccc5)c5ccccc5)N4C(=O)C(NC(=O)C(C)NC)C3)c2)CCC2CCC(C(=O)NC(c3ccccc3)c3ccccc3)N2C1=O (stereo not given) + Cc1c(S(C)(=O)=O)c(-c2cc(F)cc(N3CCN(c4ccc(NS(=O)(=O)c5ccc(NC(CCN6CCC(C(=O)OCCCP(=O)(O)O)CC6)CSc6ccccc6)c(S(=O)(=O)C(F)(F)F)c5)cc4)CC3)c2)c(-c2ccc(Cl)cc2)n1C(C)C ? 9.27
